# tested.system: human NaV 1.8 (Homo sapiens, UniProt Q9Y5Y9)
# Sequence (Q9Y5Y9 126-399 limits assumed): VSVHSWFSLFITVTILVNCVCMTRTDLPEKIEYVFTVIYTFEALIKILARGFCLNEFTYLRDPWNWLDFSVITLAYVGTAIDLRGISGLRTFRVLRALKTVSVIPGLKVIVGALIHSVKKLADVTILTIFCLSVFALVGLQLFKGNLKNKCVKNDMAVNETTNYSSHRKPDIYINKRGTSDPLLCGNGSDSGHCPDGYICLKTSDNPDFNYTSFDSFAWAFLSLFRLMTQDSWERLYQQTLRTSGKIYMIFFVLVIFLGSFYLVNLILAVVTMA
# Sequence (Q9Y5Y9 660-890 limits assumed): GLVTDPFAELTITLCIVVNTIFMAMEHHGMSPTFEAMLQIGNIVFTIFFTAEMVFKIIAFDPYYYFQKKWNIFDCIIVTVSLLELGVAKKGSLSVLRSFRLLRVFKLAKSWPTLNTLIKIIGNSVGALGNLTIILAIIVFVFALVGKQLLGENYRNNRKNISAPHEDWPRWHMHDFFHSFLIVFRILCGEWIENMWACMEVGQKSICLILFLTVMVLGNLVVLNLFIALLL
# Sequence (Q9Y5Y9 1148-1722 limits assumed): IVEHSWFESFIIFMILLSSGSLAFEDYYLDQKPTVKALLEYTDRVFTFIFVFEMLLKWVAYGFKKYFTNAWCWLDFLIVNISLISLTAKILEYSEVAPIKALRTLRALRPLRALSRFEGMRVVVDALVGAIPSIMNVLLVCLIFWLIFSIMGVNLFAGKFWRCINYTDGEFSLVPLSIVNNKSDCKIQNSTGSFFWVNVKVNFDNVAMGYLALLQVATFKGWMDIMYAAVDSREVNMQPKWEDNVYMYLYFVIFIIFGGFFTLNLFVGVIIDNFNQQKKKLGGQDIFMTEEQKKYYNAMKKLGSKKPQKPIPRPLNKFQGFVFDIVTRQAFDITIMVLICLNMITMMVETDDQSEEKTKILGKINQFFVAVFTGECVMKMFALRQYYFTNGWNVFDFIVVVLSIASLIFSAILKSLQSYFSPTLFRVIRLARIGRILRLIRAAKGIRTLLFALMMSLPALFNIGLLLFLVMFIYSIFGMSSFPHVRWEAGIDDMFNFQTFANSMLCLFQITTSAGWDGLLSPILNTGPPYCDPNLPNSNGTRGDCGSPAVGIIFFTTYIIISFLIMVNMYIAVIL
# assay.details: E-VIPR assay detecting and measuring NaV inhibition properties
# reported.conditions: HEK cells expressing a truncated form of human NaV 1.8; electrical stimulation, membrane potential FRET dyes; read-out: measured IC50 value in the E-VIPR Assay
Listing: IC50 of selected compounds

>  <compound>
CC(=O)Nc1c(C)[nH]c(-c2ccc(C(C)(C)C)cc2C)cc1=O [Compound 157]

>  <tested.system>
human NaV 1.8 (Homo sapiens, UniProt Q9Y5Y9)

>  <IC50>
0.5 to 2 µM

$$$$
>  <compound>
Cc1cc(C(C)(C)C)ccc1-c1cc(=O)c(C2CCN(C)CC2)c(C)[nH]1 [Compound 204]

>  <tested.system>
human NaV 1.8 (Homo sapiens, UniProt Q9Y5Y9)

>  <IC50>
0.5 to 2 µM

$$$$
>  <compound>
COc1c(-c2ccc(C(C)(C)C)cc2C)[nH]c(C)cc1=O [Compound 107]

>  <tested.system>
human NaV 1.8 (Homo sapiens, UniProt Q9Y5Y9)

>  <IC50>
0.5 to 2 µM

$$$$
>  <compound>
Cc1cc(C(C)(C)C)c(Cl)cc1-c1cc(=O)c(-c2ncc[nH]2)c(C)[nH]1 [Compound 212]

>  <tested.system>
human NaV 1.8 (Homo sapiens, UniProt Q9Y5Y9)

>  <IC50>
0.5 to 2 µM

$$$$
>  <compound>
Cc1cc(=O)c(C)c(-c2ccc(C(C)(C)C)cc2C)[nH]1 [Compound 75]

>  <tested.system>
human NaV 1.8 (Homo sapiens, UniProt Q9Y5Y9)

>  <IC50>
0.5 to 2 µM

$$$$

# input for lookup
Challenge: Bench note: what IC50 did Cc1cc(=O)cc(-c2ccc(C(C)C)cc2C(C)C)[nH]1 [Compound 43] show?
Response given: 2 to 5 µM

###

Measured IC50, listed per entry for reference.
# tested.system: human NaV 1.8 (Homo sapiens, UniProt Q9Y5Y9)
# assay.details: E-VIPR assay detecting and measuring NaV inhibition properties
# reported.conditions: HEK cells expressing a truncated form of human NaV 1.8; electrical stimulation, membrane potential FRET dyes; read-out: measured IC50 value in the E-VIPR Assay

Solved cases (10 shown):
>  <compound>
CCOc1c(-c2ccc(C(C)(C)C)cc2C)[nH]c(C)cc1=O

>  <tested.system>
human NaV 1.8 (Homo sapiens, UniProt Q9Y5Y9)

>  <IC50>
500 to 2000 nM

$$$$
>  <compound>
Cc1cc(=O)c(C)c(-c2ccc(C(C)(C)C)cc2)[nH]1

>  <tested.system>
human NaV 1.8 (Homo sapiens, UniProt Q9Y5Y9)

>  <IC50>
500 to 2000 nM

$$$$
>  <compound>
COCn1ccnc1-c1c(C)[nH]c(-c2cc(Cl)c(C(C)(C)C)cc2C)cc1=O

>  <tested.system>
human NaV 1.8 (Homo sapiens, UniProt Q9Y5Y9)

>  <IC50>
2000 to 5000 nM

$$$$
>  <compound>
Cc1cc(C(C)(C)C)ccc1-c1cc(=O)c(NC(=O)[C@H](C)N)c(C)[nH]1

>  <tested.system>
human NaV 1.8 (Homo sapiens, UniProt Q9Y5Y9)

>  <IC50>
2000 to 5000 nM

$$$$
>  <compound>
Cc1cc(C(C)(C)C)c(Cl)cc1-c1cc(=O)c(-c2cn(C)c(C)n2)c(C)[nH]1

>  <tested.system>
human NaV 1.8 (Homo sapiens, UniProt Q9Y5Y9)

>  <IC50>
500 to 2000 nM

$$$$
>  <compound>
Cc1cc(=O)cc(-c2c(C)cc(C(C)(C)C)cc2C)[nH]1

>  <tested.system>
human NaV 1.8 (Homo sapiens, UniProt Q9Y5Y9)

>  <IC50>
500 to 2000 nM

$$$$
>  <compound>
Cc1nc(-c2ccc(C(C)(C)C)cc2C)cc(=O)[nH]1

>  <tested.system>
human NaV 1.8 (Homo sapiens, UniProt Q9Y5Y9)

>  <IC50>
2000 to 5000 nM

$$$$
>  <compound>
Cc1cc(=O)cc(-c2ccc(C3(C(F)(F)F)CC3)cc2C)[nH]1

>  <tested.system>
human NaV 1.8 (Homo sapiens, UniProt Q9Y5Y9)

>  <IC50>
500 to 2000 nM

$$$$
>  <compound>
Cc1cc(C(C)(C)C)ccc1-c1cc(=O)cc(N(C)C)[nH]1

>  <tested.system>
human NaV 1.8 (Homo sapiens, UniProt Q9Y5Y9)

>  <IC50>
500 to 2000 nM

$$$$
>  <compound>
CCOC(=O)c1c(-c2c(C)cc(C(C)(C)C)cc2C)[nH]c(C)c(C)c1=O

>  <tested.system>
human NaV 1.8 (Homo sapiens, UniProt Q9Y5Y9)

>  <IC50>
500 to 2000 nM

$$$$

Challenge: IC50 lookup needed for Cc1cc(C(C)(C)C)ccc1-c1cc(=O)c(C2=CCN(C)CC2)c(C)[nH]1 , thanks.
Response given: 2000 to 5000 nM

Challenge: # input compound: Cc1cc(=O)c(C)c(-c2ccc(C3(C(F)(F)F)CC3)cc2)[nH]1 ; wanted: its IC50
Response given: 2000 to 5000 nM

Challenge: Requested field: IC50. Item: Cc1cc(C(C)(C)C)ccc1-c1cc(=O)c(CN)c(C)[nH]1
Response given: 500 to 2000 nM

Challenge: IC50 for Cc1cc(C(C)(C)C)ccc1-c1cc(=O)c(-c2cccnc2C#N)c(C)[nH]1 ?
Response given: 500 to 2000 nM

Challenge: Could you tell me which IC50 is on file for Cc1cc(C(C)(C)C)c(Cl)cc1-c1cc(=O)c(S(=N)(=O)C(C)C)c(C)[nH]1 (stereo not drawn) ?
Response given: 500 to 2000 nM

Challenge: Name the reported IC50 value associated with the compound Cc1cc(C(C)(C)C)ccc1-c1cc(=O)c(NC(=O)[C@@H](C)N)c(C)[nH]1
Response given: 500 to 2000 nM

Challenge: Item under review: COc1cc(=O)cc(-c2ccc(C(C)(C)C)cc2C)[nH]1 . Reported IC50?
Response given: 2000 to 5000 nM

Challenge: What value of IC50 has been recorded for this entry: Cc1[nH]c(-c2ccc(C(C)(C)C)cc2)cc(=O)c1C
Response given: 500 to 2000 nM

###

Entries and their measured IC50 follow.
# tested.system: human NaV 1.8 (Homo sapiens, UniProt Q9Y5Y9)
# assay.details: E-VIPR assay detecting and measuring NaV inhibition properties
# reported.conditions: HEK cells expressing a truncated form of human NaV 1.8; electrical stimulation, membrane potential FRET dyes; read-out: measured IC50 value in the E-VIPR Assay

Some solved cases for reference:
>  <smiles.record>
COc1nc2ccccc2cc1-c1cc(=O)c(C)c(C)[nH]1

>  <IC50>
2 to 5 µM

$$$$
>  <smiles.record>
Cc1cc(C(C)(C)C)ccc1-c1cc(=O)c(C2=CCNCC2)c(C)[nH]1

>  <IC50>
0.5 to 2 µM

$$$$

Now turn to the next compound.
Challenge: Query (compound): Cc1[nH]c(-c2ccc(C3(C(F)(F)F)CC3)cc2)cc(=O)c1C ; field requested: IC50
Response given: 0.5 to 2 µM
